tested on: U251 CNS; test: NCI-60 one-dose screen, 48 h; conditions: 10 µM unless noted
This is part of a sample that, as a whole, favours compounds with a hit. Of some 83,000 tested, about 20% had one in any assay. Active and inactive are the calls of the source. How the source made its calls: active means growth percent below 10; inactive means the rest.
Pick one and only one: active, inactive

COMPOUND	TEST_TARGET	CLASSIFICATION
CCOC(=O)c1c(C)nc2c(c1N)C(=O)C(=O)N2CCc1ccc(OC)c(OC)c1	U251 CNS	inactive

**Query** Per the assay record, what outcome was assigned to `C1=C2CCCC3=Cc4ccccc4OC23Oc2ccccc21` ?
**Result** inactive

**Query** Per the assay record, what outcome was assigned to `O=[N+]([O-])c1ccc(Oc2cccc3c(Oc4ccc([N+](=O)[O-])cc4[N+](=O)[O-])cccc23)c([N+](=O)[O-])c1` ?
**Result** inactive

**Query** Per the assay record, what outcome was assigned to `CCOc1ccc(N2C(=O)CCSC2=S)cc1` ?
**Result** inactive

**Query** Per the assay record, what outcome was assigned to `Oc1ccc(Cc2ccc(O)c3ncccc23)c2cccnc12` ?
**Result** active

**Query** Per the assay record, what outcome was assigned to `C#CCOc1cccc(-c2ncnc3cc(NC(=O)CCl)ccc23)c1` ?
**Result** active

====

System: NCI-H460 lung
Experiment: NCI-60 one-dose screen, 48 h
Settings: 10 µM unless noted
Protocol: Growth inhibition of the NCI-H460 human Non-Small Cell Lung tumor cell line is measured as a screen for anti-cancer activity. Cells are grown in 96 well plates and exposed to the test compound for 48 hours. Compounds are tested at a single concentration, which is 10^-5 M for most compounds. The reported endpoint is percent growth (GI% or GIPRCNT), where numbers from 0 - 100% represent growth inhibition, and numbers from -100% - 0 represent cell death. […]
This is part of a sample that, as a whole, favours compounds with a hit. Of some 83,000 tested, about 20% had one in any assay. The source made the active and inactive calls. How the source made its calls: active means growth percent below 10; inactive means the rest.
Pick one and only one: label 1 (active), label 0 (inactive)

COMPOUND	TEST_TARGET	CLASSIFICATION
Cc1c(-c2cnc3ccc(Cl)cc3c2C(=O)O)nnn1-c1ccc(Cl)cc1	NCI-H460 lung	label 0

**Query** Per the assay record, what outcome was assigned to `O=C(O)c1cc2ccccc2s1` ?
**Result** label 0

**Query** Per the assay record, what outcome was assigned to `Cn1cc(-c2nc(-c3c[nH]c4ccncc34)cs2)c2cc(F)ccc21` ?
**Result** label 1

**Query** Per the assay record, what outcome was assigned to `C1=C2CCCC3=Cc4ccccc4OC23Oc2ccccc21` ?
**Result** label 0

**Query** Per the assay record, what outcome was assigned to `Cn1ccnc1C(=O)/C=C/c1ccc(C(=O)Nc2c(F)c(F)c(F)c(F)c2F)cc1` ?
**Result** label 1

**Query** Per the assay record, what outcome was assigned to COc1ccccc1/C=C/C1=C(C)CCC(c2ccccc2OC)C1C (stereo not given) ?
**Result** label 1

**Query** Per the assay record, what outcome was assigned to `Clc1ccc(C2=Nn3c(nnc3-c3cc(Cl)cc(Cl)c3Cl)SC2)cc1` ?
**Result** label 0

**Query** Per the assay record, what outcome was assigned to COc1c(O[C@@H]2OC(CO)[C@H](O)[C@H](O)C2O)cc2oc3cc(O)c(CC=C(C)C)c(O)c3c(=O)c2c1CC=C(C)C (stereo not given in full) ?
**Result** label 0

**Query** Per the assay record, what outcome was assigned to `CCN=c1sc2c(n1NC(=O)c1cc3ccc1CCc1ccc(cc1)CC3)C(=O)c1ccccc1C2=O` ?
**Result** label 1

**Query** Per the assay record, what outcome was assigned to `O=C(Nc1ccccc1)Nc1ccccc1CNc1nc(Nc2ccc(OCCN3CCCC3)cc2)ncc1Cl` ?
**Result** label 1

====

Quick reference: growth of the listed items.
system: MCF7 breast; experiment: NCI-60 one-dose screen, 48 h (100 = growth as untreated, 0 = no growth, -100 = all killed); conditions: 10 µM unless noted
Compounds without any hit were thinned out: in the full panel of roughly 83,000, 20% have a hit. Activity calls are given as the source filed them. The calls were made as follows: active = growth percent below 10; inactive = the rest.

COMPOUND	growth
COc1ccc(-c2csc(NC(=O)CSc3nc(C)cc(=O)[nH]3)n2)cc1	92.8% (inactive)
C#CCOC(=O)C(N)CSSCC(N)C(=O)O (stereo not given)	99.5% (inactive)
COc1cc(C(=O)/C=C/c2c(-c3cccs3)nc3sc(C)cn23)cc(OC)c1OC	1.13% (active)
C1=C2CCCC3=Cc4ccccc4OC23Oc2ccccc21	13.5% (inactive)
O=C(N/N=C/c1ccccc1Cl)c1ccccc1Nc1ccnc(C(F)(F)F)c1	9.9% (active)

**Query** Supply growth measured with MCF7 breast for `O=C(/C=C/c1ccco1)Nc1ncc(Cc2ccc(F)cc2)s1` .
**Result** 15.8% (inactive)

**Query** Supply growth measured with MCF7 breast for `O=c1c(Cc2ccc(F)cc2)cc(-c2ccccc2)nn1C/C(=N/O)c1ccccc1` .
**Result** 26.2% (inactive)

**Query** Supply growth measured with MCF7 breast for `CCN(CC)CCCNC(=O)c1c2c(n3ccccc13)C(=O)c1ncccc1C2=O` .
**Result** -52.9% (active)

**Query** Supply growth measured with MCF7 breast for `COC12C=C/C(=C(/C(=O)OCc3ccccn3)C(=O)CCCCCCCCC3(OC)C=C/C(=C(/C(=O)OCc4ccccn4)C(=O)CCCCCCCC1)O3)O2` .
**Result** -0.915% (active)

**Query** Supply growth measured with MCF7 breast for CC1=C(C(=O)OCc2ccccc2)C(c2ccc3c(c2)OCO3)n2c(nc3ccccc32)N1 (stereo not given) .
**Result** 20.6% (inactive)

====

test system: SF-268 CNS; test: NCI-60 one-dose screen, 48 h (100 = growth as untreated, 0 = no growth, -100 = all killed); details: 10 µM unless noted
Compounds without any hit were thinned out: in the full panel of roughly 83,000, 20% have a hit.
Class key for growth values: range A: < 50%; range B: ≥ 50% and < 90%; range C: ≥ 90%

MOLECULE	TEST_TARGET	CLASSIFICATION
CCCCCCCCCCCCCC[n+]1ccc2c(C)c3c(c(C)c2c1)c1cc(O)ccc1n3CC	SF-268 CNS	range A
COc1ccc(-c2csc(NC(=O)CSc3nc(C)cc(=O)[nH]3)n2)cc1	SF-268 CNS	range C
CN1CCN(CC(=O)N(C)c2ccc(N=C(c3ccccc3)c3c(O)[nH]c4ccc([N+](=O)[O-])cc34)cc2)CC1	SF-268 CNS	range B
COc1ccc(C2=NN(C=O)C(c3ccc(Oc4nc5c(c(=O)n(C)c(=O)n5C)n4C)c(OC)c3)C2)cc1 (stereo not drawn)	SF-268 CNS	range B
CC(C)(C)n1cc(-c2ccnc(NCCNS(=O)(=O)c3ccc(Br)cc3)c2)c(-c2cccc(O)c2)n1	SF-268 CNS	range A

Next item in the queue.
**Query** // bin(item) where item = `COC(=O)CNC(=O)c1ccc(NC(=O)c2[nH]c(C)c(Cl)c2Cl)c(O[C@H]2CCNC2)c1`
**Result** range C

====

test system: HS 578T breast; experiment: NCI-60 one-dose screen, 48 h; conditions: 10 µM unless noted
This is part of a sample that, as a whole, favours compounds with a hit. Of some 83,000 tested, about 20% had one in any assay. Active and inactive are the calls of the source. Rule for the calls: active = growth percent below 10; inactive = the rest.
Pick one and only one: Yes for active, No for inactive

Examples with answers:
COMPOUND	CLASSIFICATION
COC(CCP(=O)(c1ccccc1)c1ccccc1)(C(=O)c1ccccc1)c1ccccc1 (stereo not given)	No
CCN1CCN(c2cc(C(=O)Nc3cccc(Nc4ccc5c(OC)cccc5n4)c3)cc(C(F)(F)F)c2)CC1	No
O=C(CNc1ncco1)Nc1ccc(S(=O)(=O)c2ccc(NC(=O)CNc3ncco3)cc2)cc1	Yes
COc1ccc(/C=C\c2cc(OC)c(OC)c(OC)c2)cc1OCC(=O)Nc1nc2ccccc2s1	No
CCOC(=O)c1cc(C(=O)c2cc(OC)cc(OC)c2)n2ccccc12	No
CCN(CC)CCCC(Nc1c2ccc(Cl)cc2nc2ccc(OC)cc12)c1ccncc1 (stereo not given)	No
N=C(N)c1ccc(-c2ccc(-c3ccc(Cl)cc3Cl)s2)nc1	No
c1ccc(Cn2cc3c(c2)-c2nc(Nc4ccccc4)ncc2CC3)cc1	No
O=c1[nH]c(CN2CCN(c3ccccc3)CC2)nc2c(Br)cc(Br)cc12	No

**Query** Per the assay record, what outcome was assigned to O=C(CN1C(=O)NC2NC(=O)NC21)N/N=C/c1cccc([N+](=O)[O-])c1 (stereo not given) ?
**Result** No

====

tested on: SK-MEL-5 melanoma; assay: NCI-60 one-dose screen, 48 h (100 = growth as untreated, 0 = no growth, -100 = all killed); details: 10 µM unless noted
Compounds without any hit were thinned out: in the full panel of roughly 83,000, 20% have a hit.
Where growth equals or exceeds 90%, the correct label is Y; where it does not, the label is N.

COMPOUND	TEST_TARGET	CLASSIFICATION
O=C1/C(=C/c2ccc(Br)cc2)COc2ccc(O)cc21	SK-MEL-5 melanoma	Y
O=C(O)/C=C/c1cn(-c2ccccc2)nc1-c1ccc(F)cc1	SK-MEL-5 melanoma	Y
COc1ccc(C2=NN3C(C2)c2cc(Br)ccc2OC3c2ccncc2)cc1 (stereo not given)	SK-MEL-5 melanoma	Y
O=C(O)COc1ccc(F)cc1	SK-MEL-5 melanoma	Y
O=C1CCC(C(=O)N/N=C/c2ccc([N+](=O)[O-])cc2)N1 (stereo not given)	SK-MEL-5 melanoma	Y

**Query** Hi team, for O=C(CN1C(=O)NC2NC(=O)NC21)N/N=C/c1cccc([N+](=O)[O-])c1 (stereo not given) , is the recorded growth at or above 90%?
**Result** Y

**Query** Hi team, for `O=c1c2cccc3c(N4CCOCC4)ccc(c32)c2nc3ccccc3n12` , is the recorded growth at or above 90%?
**Result** N

**Query** Hi team, for `Cc1cc2c(C(C)C)c(O)c(O)c(/C=N/O)c2c(O)c1-c1c(C)cc2c(C(C)C)c(O)c(O)c(/C=N/O)c2c1O` , is the recorded growth at or above 90%?
**Result** N

**Query** Hi team, for CN1CC(c2ccccc2)C(C(=O)c2ccc(Br)cc2)C12C(=O)Nc1ccccc12 (stereo not given) , is the recorded growth at or above 90%?
**Result** Y

**Query** Hi team, for `CC1=NN(c2cccc(Cl)c2)C(=O)/C1=C\C=C\c1ccccc1` , is the recorded growth at or above 90%?
**Result** N
